Target: Corticotropin-releasing factor receptor 2/Corticotropin-releasing factor-binding protein (Homo sapiens, UniProt P24387+Q13324)
Sequence (Q13324 whole entry): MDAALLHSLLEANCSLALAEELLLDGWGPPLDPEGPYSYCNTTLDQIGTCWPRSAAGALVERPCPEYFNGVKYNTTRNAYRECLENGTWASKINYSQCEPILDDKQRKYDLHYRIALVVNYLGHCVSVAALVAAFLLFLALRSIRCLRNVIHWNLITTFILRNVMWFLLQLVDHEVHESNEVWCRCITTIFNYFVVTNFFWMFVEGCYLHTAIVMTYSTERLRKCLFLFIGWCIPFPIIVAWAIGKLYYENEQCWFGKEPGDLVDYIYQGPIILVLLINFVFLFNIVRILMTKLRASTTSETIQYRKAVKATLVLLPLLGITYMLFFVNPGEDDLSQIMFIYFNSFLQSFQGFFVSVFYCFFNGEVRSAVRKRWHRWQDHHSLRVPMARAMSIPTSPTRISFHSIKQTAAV
Sequence (P24387 whole entry): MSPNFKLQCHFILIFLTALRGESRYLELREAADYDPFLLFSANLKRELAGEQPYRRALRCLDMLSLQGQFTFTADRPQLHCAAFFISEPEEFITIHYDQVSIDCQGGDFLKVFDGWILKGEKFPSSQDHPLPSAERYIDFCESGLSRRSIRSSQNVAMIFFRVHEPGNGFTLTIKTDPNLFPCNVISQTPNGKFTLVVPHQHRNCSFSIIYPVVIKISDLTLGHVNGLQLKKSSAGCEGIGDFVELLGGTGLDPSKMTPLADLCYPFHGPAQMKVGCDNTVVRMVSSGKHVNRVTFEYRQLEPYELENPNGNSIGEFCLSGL
Assay: activators of CRF receptor 2 with binding protein – uHTS hits, confirmation (AID 602473)
Format: functional
Conditions: read-out: EC50_Mean
The source made the active and inactive calls.
Result category, one only: class 1 for active, class 0 for inactive

The examples below pair each entry with its known result.
Problem: What is the recorded call for this compound in the test? `O=C(CN1c2cccc3cccc(c23)S1(=O)=O)NC1CCCCC1`
Result: class 0

Problem: What is the recorded call for this compound in the test? Cc1cccnc1NC(=O)C(C)Oc1ccccc1 (stereo unspecified)
Result: class 0

Problem: What is the recorded call for this compound in the test? CCc1ccc(Nc2nnc(SC(C)C(=O)NC3CC3)s2)cc1 (stereo unspecified)
Result: class 0

Problem: What is the recorded call for this compound in the test? `CC(C)c1nc2c(c(=O)c3ccccc3n2C)c(=O)n1CCc1ccccc1`
Result: class 1

Further cases:
Problem: What is the recorded call for this compound in the test? `COc1ccccc1S(=O)(=O)Cc1ccc(C(=O)NCc2ccccc2)o1`
Result: class 0

Problem: What is the recorded call for this compound in the test? `O=C(Nc1ccc(-n2cnnn2)cc1)c1cn2ccccc2n1`
Result: class 0

----------
biological target: 26S proteasome non-ATPase regulatory subunit 14 (Homo sapiens); assay: inhibition of proteasome subunit RPN11 – biochemical, fluorescence polarization, uHTS hits, confirmation (AID 602368); assay type: functional
Sequence (O00487 whole entry): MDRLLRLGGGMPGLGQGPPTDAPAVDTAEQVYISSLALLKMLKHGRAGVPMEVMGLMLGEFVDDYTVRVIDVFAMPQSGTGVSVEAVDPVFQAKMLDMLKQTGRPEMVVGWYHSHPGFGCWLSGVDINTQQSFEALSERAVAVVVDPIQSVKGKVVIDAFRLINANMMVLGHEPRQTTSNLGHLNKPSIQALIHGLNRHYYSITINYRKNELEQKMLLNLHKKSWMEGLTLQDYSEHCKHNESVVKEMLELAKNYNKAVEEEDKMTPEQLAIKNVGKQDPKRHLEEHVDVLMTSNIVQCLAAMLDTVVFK
The source made the active and inactive calls.
Reported IC50 values follow for various compounds

Problem: Need IC50 of CN1CCc2c(sc3c2C(=O)NC(c2cn(Cc4ccccc4)c4ccccc24)N3)C1 (centres undefined) , thanks.
Result: 23.4 µM (active)

Further cases:
Problem: Need IC50 of `COCC/N=c1\scc(-c2cc(OC)c(OC)c(OC)c2)n1/N=C/c1c(C)[nH]c2ccccc12` , thanks.
Result: 76.9 µM (active)

Problem: Need IC50 of `CCCC1=NN2C(=N)/C(=C\c3ccc(SCc4ccco4)o3)C(=O)N=C2S1` , thanks.
Result: 13.7 µM (active)

Problem: Need IC50 of `COc1ccc(CN2C(=O)NC(=O)/C(=C\c3ccco3)C2=O)cc1` , thanks.
Result: 26.5 µM (active)
